- Tested on: COLO 205
- ASSAY_REMARKS: NCI tumour cell line growth inhibition, 48 h
Activity calls are given as the source filed them. No stated cut-off is given here; in the data, active = GI50 up to about 1.1 µM and inactive = higher.
ENDPOINT_LABEL: GI50

[[record]]
compound = "CC/C=C1\\N=C(c2ccc(Cl)cc2)OC1=O"
endpoint_label = "GI50"
reported = "> 100 µM (inactive)"

[[record]]
compound = "Cc1ccc(NC2=CC(=O)C(NO)c3ccccc32)cc1 (centres undefined)"
endpoint_label = "GI50"
reported = "2.81 µM (inactive)"

[[record]]
compound = "N#Cc1c(-c2ccccc2)c(/N=N/c2ccc(Cl)cc2)c(=O)n2c1[nH]c1ccccc12"
endpoint_label = "GI50"
reported = "> 100 µM (inactive)"


[ask] Identify the measured GI50 of O=c1c(Cl)c(Cl)c(=O)c2sc3cc(Cl)ccc3[nH]c1=2 for COLO 205.
[reply] 90.4 µM (inactive)

* * *

- Tested on: SNB-75
- ASSAY_REMARKS: NCI tumour cell line growth inhibition, 48 h
Active and inactive are the calls of the source. Rule as the data show it: active = GI50 up to about 1.1 µM and inactive = higher.
Form entry, call: pick from active, inactive

As a guide, the following entries are already answered.
[[record]]
molecule = "CC(=O)OCC1OC(n2c(=S)n(-c3ccccc3)c(=O)c3cc(Br)ccc32)C(OC(C)=O)C1OC(C)=O (stereo not drawn)"
discrete_label = "inactive"

[[record]]
molecule = "O=C1C(Cl)N(c2ccccc2Cl)C1c1c[nH]c2ccccc12 (stereo not drawn)"
discrete_label = "inactive"


[ask] How was CC(C)(C)OC(=O)N(O)CCCn1cnc2c(NC3CC3)ncnc21 classified in this test?
[reply] inactive

[ask] Item: COc1c(/C=C/C(C)(C)O)cc(C2CC(=O)c3c(O)cc(O)cc3O2)cc1CC=C(C)C (stereo not drawn)
[reply] inactive

* * *

- System: NCI-H460
- ASSAY_REMARKS: NCI tumour cell line growth inhibition, 48 h
Active and inactive are the calls of the source. Cut-off read from the data, not from the text of the source: active = GI50 up to about 1.1 µM and inactive = higher.
The entries below come with measured GI50 values attached.

Worked examples, 3 molecules total:
[[record]]
molecule = "Cc1cccc(NC2=NC(=O)C(CC(=O)Nc3cccc(C)c3C)S2)c1 (stereo not given)"
reported = "> 100 µM (inactive)"

[[record]]
molecule = "CCOC(=O)c1cccc(=O)c(C(=O)OCC)c1"
reported = "80 µM (inactive)"

[[record]]
molecule = "NC1=NC(NCC2(CO)CCC2)=CC(OCC2(CO)CCC2)N1 (stereo not given)"
reported = "> 100 µM (inactive)"


[ask] Value lookup for GI50; key = Nc1nc(SCCNC(=O)CCc2ccc(O)cc2)nc2c1ncn2C1OC(CO)C(O)C1O (stereo not given)
[reply] > 203 µM (inactive)

[ask] Same read-out for COc1ccc2c(c1)c1nn(CCN3CCCCC3)c3ccc4c(=O)n(CCN(C)C)c(=O)n2c4c13 ?
[reply] < 0.01 µM (active)

* * *

Below, each entry is listed alongside its reported GI50.
- Test system: NCI-H522
- ASSAY_REMARKS: NCI tumour cell line growth inhibition, 48 h
The source made the active and inactive calls. Rule as the data show it: active = GI50 up to about 1.1 µM and inactive = higher.

Example cases with answers are listed next.
[[record]]
compound = "CCOc1cc(C(c2c(O)c3ccccc3oc2=O)c2c(O)c3ccccc3oc2=O)ccc1OC"
reported = "18.3 µM (inactive)"

[[record]]
compound = "Nc1ccc2ncc(Nc3ccc(F)cc3)nc2c1"
reported = "> 100 µM (inactive)"

[[record]]
compound = "NC(=O)CCC(NC(=O)Cc1ccccc1)C(=O)O.NC(CCC(=O)NC(=O)Cc1ccccc1)C(=O)O (stereo not given)"
reported = "> 8130 µM (inactive)"

[[record]]
compound = "O=C(/C=C/c1c(O)ccc2ccccc12)c1ccc([N+](=O)[O-])cc1"
reported = "17 µM (inactive)"


[ask] # query: GI50 of entry CCOC(=O)C(NC(=O)CC)(Nc1ccc(S(=O)(=O)Nc2ncccn2)cc1)C(F)(F)F (stereo not given)
[reply] > 100 µM (inactive)

* * *

Listing: GI50 of selected molecules
- Test system: CAKI-1
- ASSAY_REMARKS: NCI tumour cell line growth inhibition, 48 h
The source made the active and inactive calls. No stated cut-off is given here; in the data, active = GI50 up to about 1.1 µM and inactive = higher.

# example entries with known answers
[[record]]
molecule = "O=P(c1ccccc1)(c1ccccc1)N1O[C@@H](c2ccccc2)C=C[C@H]1c1ccccc1"
endpoint_label = "GI50"
reported = "5.66 µM (inactive)"

[[record]]
molecule = "CCOC(=O)c1cccc(=O)c(C(=O)OCC)c1"
endpoint_label = "GI50"
reported = "77.3 µM (inactive)"

[[record]]
molecule = "CC1OC(CO)(n2cnc3c(N)ncnc32)C(O)C1O (stereo unspecified)"
endpoint_label = "GI50"
reported = "> 100 µM (inactive)"

[[record]]
molecule = "N#CC(C#N)[C@@H]1CCC=C(Sc2ccccc2)[C@H]1Sc1ccccc1"
endpoint_label = "GI50"
reported = "2.65 µM (inactive)"

[[record]]
molecule = "CC12Cc3cc4c(cc3C1(c1ccc([N+](=O)[O-])cc1)OCCO2)OCO4 (stereo unspecified)"
endpoint_label = "GI50"
reported = "> 100 µM (inactive)"

[[record]]
molecule = "COc1ccc2c3c(c(C(=O)c4ccccc4)oc13)CCC2"
endpoint_label = "GI50"
reported = "> 100 µM (inactive)"

[[record]]
molecule = "COc1cc2nc(-c3ccccc3)cc(O)c2cc1OC"
endpoint_label = "GI50"
reported = "23.6 µM (inactive)"

[[record]]
molecule = "COc1cc(O)c2c(=O)c3c(C)cccc3n(C)c2c1"
endpoint_label = "GI50"
reported = "> 10 µM (inactive)"


[ask] Field: GI50 (CAKI-1). Entry: CC(=O)OCCC[C@@H]1C(=C(C)C)CCC2[C@@]1(C)CC[C@@]1(C)C[C@](C)(CCC=C(C)C)CC[C@]21C (stereo partly specified)
[reply] > 100 µM (inactive)

[ask] Item: C/C=C(\C)C(=O)OC1C2C(C)C(=O)OC2C(O)C(C)C2C=CC(=O)C21C (stereo unspecified)
[reply] 13 µM (inactive)

[ask] Item: O=c1c2ccccc2n2cnc3ccc(NCCNCCO)c1c32
[reply] 2.43 µM (inactive)

* * *

- Test system: OVCAR-8
- ASSAY_REMARKS: NCI tumour cell line growth inhibition, 48 h
Activity calls are given as the source filed them. Cut-off read from the data, not from the text of the source: active = GI50 up to about 1.1 µM and inactive = higher.
Hi there, use one of these labels in your reply, thanks! active, inactive

Please review the entries below; each comes with its answer.
[[record]]
compound = "CN(C(=O)Cc1ccc(Cl)c(Cl)c1)[C@H]1CCCC[C@@H]1[N+]1(C)CCCC1"
discrete_label = "inactive"

[[record]]
compound = "N#Cc1c(-c2ccccc2)c(/C=N/c2cccc(C(F)(F)F)c2)c(=O)n2c1[nH]c1ccccc12"
discrete_label = "inactive"

[[record]]
compound = "C(=N\\c1ccc(-c2nc3ccccc3s2)cc1)/c1ccc[nH]1"
discrete_label = "inactive"

[[record]]
compound = "CC(=O)n1ccc2c(Cl)ncnc21"
discrete_label = "inactive"


[ask] // param item: CC(=O)OC1C(O)C(C)OC(OC(=O)C2CCC3C(C2)OC2(CC(OC(=O)/C=C/c4ccccc4)C(C)CO2)C32CO2)C1OC1OC(C)C(O)C(O)C1O (centres undefined) ; yields the recorded call
[reply] active

[ask] Try the compound CCCCC(=O)N/S(=N/C(=O)c1ccccc1)C(Cl)(Cl)Cl (centres undefined)
[reply] inactive

[ask] Entry COc1ccc(-c2oc(/C=N/NC(N)=S)c([N+](=O)[O-])c2-c2ccc(OC)c(OC)c2)cc1OC please
[reply] inactive

[ask] Next compound: CCC1(c2ccc(N3C(=O)c4cc(OC)c(OC)cc4C3=O)cc2)CCC(=O)NC1=O (centres undefined)
[reply] inactive

[ask] Check CC(=O)O[C@@H]1C[C@]2(C(=O)c3ccccc3)C(=O)C(=O)S[C@]12c1ccccc1 too.
[reply] inactive

* * *

- Tested on: UO-31
- ASSAY_REMARKS: NCI tumour cell line growth inhibition, 48 h
Activity calls are given as the source filed them. Cut-off read from the data, not from the text of the source: active = GI50 up to about 1.1 µM and inactive = higher.
Reply using exactly one outcome from true for active, false for inactive

[[record]]
molecule = "O=C(O)CN1CCN(CC(=O)O)CCN(CC(=O)O)CC1"
experimental_system = "UO-31"
discrete_label = "false"


Now for another entry.
[ask] Kindly provide the recorded test outcome for the following molecule: COC1/C=C/C(C)C(O)CC(O)/C=C/C(C)C(C(C)C(OC)C(C)CCC(=O)C(C)C(C/C=C/N(C)C=O)OC)OC(=O)/C=C/C=C(\C)CC(OC)CC2=CC(=O)O[C@@H](C(C)C(OC)C1)[C@H]2O (stereo partly specified)
[reply] true

* * *

- Tested on: OVCAR-4
- ASSAY_REMARKS: NCI tumour cell line growth inhibition, 48 h
Calls of active or inactive are those of the source. Rule as the data show it: active = GI50 up to about 1.1 µM and inactive = higher.
Parameter GI50: see the listing below.

Look over these answered cases.
[[record]]
molecule = "c1ccc(/N=C(/Nc2ccccc2)N2CCCC2)cc1"
reported = "> 100 µM (inactive)"

[[record]]
molecule = "CC(=O)O[C@@H]1CN(S(=O)(=O)c2ccc(C)cc2)C[C@@H]1C1CCCCC1"
reported = "50.6 µM (inactive)"

[[record]]
molecule = "CNC(=O)OCc1cc2ccncc2c2c1[nH]c1ccccc12"
reported = "> 100 µM (inactive)"

[[record]]
molecule = "Cc1ccc(C)c2c1CCc1cc3ccccc3nc1-2"
reported = "> 100 µM (inactive)"


[ask] Please report the recorded GI50 for CCOC(=O)/C(C(=S)NC)=C(/N)N1CCCC1 .
[reply] > 100 µM (inactive)

[ask] Here is the next molecule: COc1cccc(C23CCCC(C2)N(C)CC3OC(=O)c2ccccc2)c1OC (configuration not stated)
[reply] 24 µM (inactive)

[ask] Now the same for Oc1ccccc1/C=N/Cc1ccco1
[reply] > 100 µM (inactive)

[ask] C=CCn1c(=O)c(C(=O)Nc2nc(C34CC5CC(CC(C5)C3)C4)cs2)c(O)c2ccccc21 ?
[reply] 39.2 µM (inactive)
